TARGET OR SYSTEM: EphB1 kinase domain (Homo sapiens)
Sequence (P54762 619-882 limits assumed): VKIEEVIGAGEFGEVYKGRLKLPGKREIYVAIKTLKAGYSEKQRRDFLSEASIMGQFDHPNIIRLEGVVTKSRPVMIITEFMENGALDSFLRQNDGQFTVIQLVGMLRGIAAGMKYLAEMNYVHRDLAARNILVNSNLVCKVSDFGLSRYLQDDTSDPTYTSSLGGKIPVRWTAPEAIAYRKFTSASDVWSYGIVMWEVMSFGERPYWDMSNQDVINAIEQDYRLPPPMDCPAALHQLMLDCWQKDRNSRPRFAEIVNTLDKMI
ASSAY INFO: Radiometric protein kinase assay (33PanQinase Activity Assay), EphB1
OBSERVABLE: IC50

CN(C)c1ccc(O)c2c1C[C@H]1C[C@H]3[C@H](N(C)C)C(O)=C(C(N)=O)C(=O)[C@@]3(O)C(O)=C1C2=O
56 µM
CN(C)[C@@H]1C(O)=C(C(N)=O)C(=O)[C@@]2(O)C(O)=C3C(=O)c4c(O)ccc(Cl)c4[C@@H](O)[C@H]3C[C@@H]12
39 µM

Next molecule, IC50 to be filled in.
input: Reported IC50, molecule `CN(C)[C@@H]1C(O)=C(C(N)=O)C(=O)[C@@]2(O)C(O)=C3C(=O)c4c(O)ccc(Cl)c4[C@@](C)(O)[C@H]3C[C@@H]12` : ____
output: 44 µM

###

pIC50 for assorted compounds
TARGET OR SYSTEM: EphB2 kinase domain (Homo sapiens, UniProt P29323)
Sequence (P29323 621-884 limits assumed): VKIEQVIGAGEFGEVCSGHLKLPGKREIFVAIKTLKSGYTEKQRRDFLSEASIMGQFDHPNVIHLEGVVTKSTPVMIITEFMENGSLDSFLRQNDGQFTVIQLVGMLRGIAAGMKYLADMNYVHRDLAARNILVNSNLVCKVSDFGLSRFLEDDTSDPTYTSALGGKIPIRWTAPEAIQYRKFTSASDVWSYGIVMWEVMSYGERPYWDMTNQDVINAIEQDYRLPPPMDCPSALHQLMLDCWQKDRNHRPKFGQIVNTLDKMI
pIC50: −log10 of the molar value.

CN(C)[C@@H]1C(O)=C(C(N)=O)C(=O)[C@@]2(O)C(O)=C3C(=O)c4c(O)ccc(Cl)c4[C@@H](O)[C@H]3C[C@@H]12 [Demeclocycline, demeclocycline]
4.04 to 4.43

input: Reported pIC50, compound CN(C)c1ccc(O)c2c1C[C@H]1C[C@H]3[C@H](N(C)C)C(O)=C(C(N)=O)C(=O)[C@@]3(O)C(O)=C1C2=O [minocycline] : ____
output: 4.04 to 4.43

input: Reported pIC50, compound CN(C)[C@@H]1C(O)=C(C(N)=O)C(=O)[C@@]2(O)C(O)=C3C(=O)c4c(O)ccc(Cl)c4[C@@](C)(O)[C@H]3C[C@@H]12 [chlortetracycline] : ____
output: 4.04 to 4.43
